Provenance of the data: PubChem BioAssay AID2060341

test system: 327498-153-R-J2-PDC multicell spheroid viability; test: Anticancer human tumor 327498-153-R-J2-PDC patient-derived uterine carcinosarcoma cell line growth inhibition [IpAb]; conditions: second compound 0.0316 µM; first compound 3.16 µM; active compounds read low
Measure: viability, T/C (%)
Numeric answer only, unit % assumed.

Cn1nccc1Nc1nccc(-c2ccn(C(CO)c3ccc(Cl)c(F)c3)c(=O)c2)n1 (stereo not drawn) + CCN1CCN(Cc2ccc(Nc3ncc(F)c(-c4cc(F)c5nc(C)n(C(C)C)c5c4)n3)nc2)CC1    48
CC1(C)CCC(CN2CCN(c3ccc(C(=O)NS(=O)(=O)c4ccc(NCC5CCOCC5)c([N+](=O)[O-])c4)c(Oc4cnc5[nH]ccc5c4)c3)CC2)=C(c2ccc(Cl)cc2)C1 + CCN1CCN(Cc2ccc(Nc3ncc(F)c(-c4cc(F)c5nc(C)n(C(C)C)c5c4)n3)nc2)CC1    77.6

stdin: Fill in: viability, T/C of C=CC(=O)N1CCN(c2nc(=O)n(-c3c(C)ccnc3C(C)C)c3nc(-c4c(O)cccc4F)c(F)cc23)C(C)C1 (stereo not drawn) + CCN1CCN(Cc2ccc(Nc3ncc(F)c(-c4cc(F)c5nc(C)n(C(C)C)c5c4)n3)nc2)CC1 is ___
stdout: 38

----------
tested on: 327498-153-R-J2-PDC multicell spheroid viability; assay: Anticancer human tumor 327498-153-R-J2-PDC cell line growth inhibition [IpAb]; conditions: second compound 10 µM; first compound 0.1 µM; active = viability on the fitted dose curve at most 10% of control; inactive = the rest;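 note: spheroids exposed to agents for 7 days; 100% = DMSO vehicle control viability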
Bench note: report the call from yes = active, no = inactive

Field: example entries. Status: answers known.
CC(C)n1nc(-c2ccc3oc(N)nc3c2)c2c(N)ncnc21 + CC(C)NCC(C(=O)N1CCN(c2ncnc3c2C(C)CC3O)CC1)c1ccc(Cl)cc1    yes
C=CCn1c(=O)c2cnc(Nc3ccc(N4CCN(C)CC4)cc3)nc2n1-c1cccc(C(C)(C)O)n1 + CC(C)NCC(C(=O)N1CCN(c2ncnc3c2C(C)CC3O)CC1)c1ccc(Cl)cc1    no
COc1c(OCCCN2CCOCC2)ccc2c3n(c(=NC(=O)c4cnc(N)nc4)nc12)CCN3 + CC(C)NCC(C(=O)N1CCN(c2ncnc3c2C(C)CC3O)CC1)c1ccc(Cl)cc1    no
CC1(C)CCC(CN2CCN(c3ccc(C(=O)NS(=O)(=O)c4ccc(NCC5CCOCC5)c([N+](=O)[O-])c4)c(Oc4cnc5[nH]ccc5c4)c3)CC2)=C(c2ccc(Cl)cc2)C1 + CC(C)NCC(C(=O)N1CCN(c2ncnc3c2C(C)CC3O)CC1)c1ccc(Cl)cc1    no

stdin: What did this assay record as the result for Cc1nc(NC(=O)N2CCCC2C(N)=O)sc1-c1ccnc(C(C)(C)C(F)(F)F)c1 (stereo not given) + CC(C)NCC(C(=O)N1CCN(c2ncnc3c2C(C)CC3O)CC1)c1ccc(Cl)cc1 ?
stdout: no

----------
tested on: 327498-153-R-J2-PDC multicell spheroid viability; experiment: Anticancer human tumor 327498-153-R-J2-PDC cell line growth inhibition [IpAb]; details: second compound 1 µM; first compound 0.1 µM; active compounds read low;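 note: spheroids exposed to agents for 7 days; 100% = DMSO vehicle control viability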
Measure: viability, T/C

CC(C)n1nc(-c2ccc3oc(N)nc3c2)c2c(N)ncnc21 + CCN1CCN(Cc2ccc(Nc3ncc(F)c(-c4cc(F)c5nc(C)n(C(C)C)c5c4)n3)nc2)CC1    19.9%

stdin: Entry COc1c(OCCCN2CCOCC2)ccc2c3n(c(=NC(=O)c4cnc(N)nc4)nc12)CCN3 + CCN1CCN(Cc2ccc(Nc3ncc(F)c(-c4cc(F)c5nc(C)n(C(C)C)c5c4)n3)nc2)CC1 , system 327498-153-R-J2-PDC multicell spheroid viability: what viability, T/C was measured?
stdout: 26.6%

stdin: Entry C=CCn1c(=O)c2cnc(Nc3ccc(N4CCN(C)CC4)cc3)nc2n1-c1cccc(C(C)(C)O)n1 + CCN1CCN(Cc2ccc(Nc3ncc(F)c(-c4cc(F)c5nc(C)n(C(C)C)c5c4)n3)nc2)CC1 , system 327498-153-R-J2-PDC multicell spheroid viability: what viability, T/C was measured?
stdout: 58.6%

stdin: Entry Cc1nc(NC(=O)N2CCCC2C(N)=O)sc1-c1ccnc(C(C)(C)C(F)(F)F)c1 (stereo not given) + CC(C)NCC(C(=O)N1CCN(c2ncnc3c2C(C)CC3O)CC1)c1ccc(Cl)cc1 , system 327498-153-R-J2-PDC multicell spheroid viability: what viability, T/C was measured?
stdout: 57.7%

stdin: Entry Cn1nccc1Nc1nccc(-c2ccn(C(CO)c3ccc(Cl)c(F)c3)c(=O)c2)n1 (stereo not given) + CCN1CCN(Cc2ccc(Nc3ncc(F)c(-c4cc(F)c5nc(C)n(C(C)C)c5c4)n3)nc2)CC1 , system 327498-153-R-J2-PDC multicell spheroid viability: what viability, T/C was measured?
stdout: 45.3%
